- assay_overview: soluble on expression in E. coli; label from the status in PepcDB or PDB records

- item_sequence: "MGVDNFSTTKKMFTWEVPGERVITLMTAGNLATTQALISLLEERSKTPSERSPSILERPTMFEVARLVGATLKEVIADTAGTGQVASSQFKASVIVGGQVKGGLPTLFLIYPEGNFIEVTEDSPFFQIGEAKYGKPILVRAYDPDLSFEDTIRLLMVSFDSTIKANLSVGLPLDLQVYANDSFAIKEQSRVEADDAYFQSISERWGDALRKALSDLPPYKSLLEHHHHHH"
  soluble on expression in E. coli: "not soluble"
- item_sequence: "MKVTKADIVISAVKPEQYPDGDLPEIALAGRSNVGKSSFINKILNRKKLVRISSKPGKTQTLNFFLINEMMHFVDVPGYGYAKVSKTERAAWGKMIETYFTTREQLDAAVLVVDLRHKPTNDDVMMYDFLKHYDIPTIIIATKADKIPKGKWQKHLKVVKETLDIESGDEVVLFSSETGLGKEEAWKAIHKFTKTKNA"
  soluble on expression in E. coli: "not soluble"
